Tested on: CCRF-CEM leukemia
Experiment: NCI tumour cell line growth inhibition, 48 h
The following molecules are shown together with reported TGI values.

Look over these answered cases.
                                   molecule  measured_metric  obs_value
0    Cc1nc2ccccc2c(=O)n1NC(=S)Nc1cccc(Cl)c1              TGI   > 100 µM
1  CCOC(=O)[C@H]1Nc2ccc(Cl)cc2[C@H]2OCC[C@@H]12              TGI   > 100 µM
2  COc1ccc(C2CC(=O)CC(c3ccc(OC)cc3)C23C(=O)NC(=S)NC3=O)cc1 (stereo unspecified)              TGI   > 100 µM
3  CC[C@H](C)C1=C(O)[N@+]2([O-])Oc3ccc(-c4c(O)c(O)c(-c5ccc(OC(C)=O)cc5)c(OC(C)=O)c4OC(C)=O)cc3O[C@]2([C@@H](C)CC)C(=O)N1O              TGI    23.8 µM
4  COc1ccc([C@H]2C=C(c3cc(F)c(Cl)cc3Cl)NC(=S)N2)cc1              TGI   > 100 µM

Reported TGI for CCRF-CEM leukemia, given CCCCCCCCCC1C(C)c2c([nH]c3ccccc23)C2C(=O)N(c3ccccc3)C(=O)C21 (stereo unspecified) ? 8.05 µM

Hey, just so you know, these numbers are from PubChem BioAssay (NCI).
